So I've got a bunch of compounds here, and I need their T Cell Chemotaxis Selectivity values.
measured target: CCR6 (Homo sapiens, UniProt P51684)
Construct: Human CD4+CCR6+CXCR3-T cells were isolated from leukopak from healthy donors; endogenous in cells
Sequence (P51684 whole entry): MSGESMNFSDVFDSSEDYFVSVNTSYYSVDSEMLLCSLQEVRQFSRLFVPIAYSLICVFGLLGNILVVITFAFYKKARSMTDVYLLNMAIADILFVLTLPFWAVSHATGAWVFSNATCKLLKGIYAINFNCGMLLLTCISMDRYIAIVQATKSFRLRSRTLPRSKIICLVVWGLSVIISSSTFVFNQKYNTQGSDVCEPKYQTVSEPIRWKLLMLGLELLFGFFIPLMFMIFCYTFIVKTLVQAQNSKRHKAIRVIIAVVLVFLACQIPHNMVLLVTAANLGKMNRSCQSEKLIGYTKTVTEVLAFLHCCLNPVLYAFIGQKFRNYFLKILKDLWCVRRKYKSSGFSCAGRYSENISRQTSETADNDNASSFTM
procedure details: CCR6+ T Cell Chemotaxis Assay
Type: cell-based
condition info: Table 13; T cell chemotaxis compared to neutrophil chemotaxis; NS = not selective for T cell chemotaxis compared to neutrophil chemotaxis

Enquiry: Look up T Cell Chemotaxis Selectivity for this compound: `CN(C)C(=O)c1nccc(Nc2c(N[C@H](c3nn(C)cc3Cl)C3(C)CCCC3)c(=O)c2=O)c1O`
Return: 46

Enquiry: Query `Cc1nc([C@H](Nc2c(Nc3ccnc(C(=O)N(C)C)c3O)c(=O)c2=O)C2(C)CC2)c(C)s1` next
Return: 3

Enquiry: Query `Cc1cn(C)nc1[C@H](Nc1c(Nc2ccnc(C(=O)N(C)C(C)C)c2O)c(=O)c1=O)C1(C)CCCC1` next
Return: 665

Enquiry: Query `COc1cn(C)nc1[C@H](Nc1c(Nc2ccnc(C(=O)N(C)C)c2O)c(=O)c1=O)C1(C)CCCC1` next
Return: 63

Enquiry: Query `COc1cn(C)nc1[C@H](Nc1c(Nc2ccnc(C(=O)N(C)C)c2O)c(=O)c1=O)C(C)(C)C` next
Return: 60

Enquiry: Query `CN(C)C(=O)c1nccc(Nc2c(N[C@@H](c3nn(C)cc3C#N)C3(C)CCCC3)c(=O)c2=O)c1O` next
Return: 104

Enquiry: Query `Cc1nc([C@H](Nc2c(Nc3ccnc(C(=O)N(C)C)c3O)c(=O)c2=O)C2(C)CCCC2)c(C)s1` next
Return: 123
